Recorded values, source patent US20250352654A1.

assay: In vivo pharmacokinetics of PSL conjugates; details: male, C57BL/6, mouse, plasma, iv; healthy mice, 1 mg kg-1 equivalent dose of PSL; mean ± SD (n = 3)
endpoint.name: half-life (h)
Give bare numbers, in h.

Documented half-life of C[C@]12C=CC(=O)C=C1CC[C@@H]1[C@@H]2[C@@H](O)C[C@@]2(C)[C@H]1CC[C@]2(O)C(=O)CO [Free PSL, prednisolone] : 3.78

* * *

assay: In vivo pharmacokinetics of DEX conjugates; settings: male, DBA/1J, mouse, plasma, iv, 1 mg kg^-1 (DEX equivalent); healthy mice; mean ± SD (n = 3)
endpoint.name: AUC(0-t)
Just the number plus its unit, please.

AUC(0-t) reading for `C[C@@H]1C[C@H]2[C@@H]3CCC4=CC(=O)C=C[C@]4(C)[C@@]3(F)[C@@H](O)C[C@]2(C)[C@@]1(O)C(=O)CO` : 23.2 ng·h/mL
